Consider the following compounds; for each one, report its Minimal inhibitory concentration (MIC), S. aureus ATCC 25923.
test system: S. aureus ATCC 25923; assay: microbe, parasite or virus in culture; conditions: ATCC 25923, 24 h
Don't forget the unit after the number, please.

Example results:
query.smiles	tested.system	observed.result
NCCCC[C@H](NC(=O)OCc1ccccc1Cl)C(=O)NCCNC(=O)CCN(CCC[C@@H](C(=O)NCCc1cnc[nH]1)N(CCC(=O)NCCNC(=O)[C@H](CCCCN)NC(=O)OCc1ccccc1Cl)CCC(=O)NCCNC(=O)[C@H](CCCCN)NC(=O)OCc1ccccc1Cl)CCC(=O)NCCNC(=O)[C@H](CCCCN)NC(=O)OCc1ccccc1Cl	S. aureus ATCC 25923	24.7 µM
CCCCCCCCCCCCNC(=O)[C@H](CCCN(CCC(=O)NCCNC(=O)[C@@H](N)CCCCNC(=O)OCc1ccccc1Cl)CCC(=O)NCCNC(=O)[C@@H](N)CCCCNC(=O)OCc1ccccc1Cl)N(CCC(=O)NCCNC(=O)[C@@H](N)CCCCNC(=O)OCc1ccccc1Cl)CCC(=O)NCCNC(=O)[C@@H](N)CCCCNC(=O)OCc1ccccc1Cl	S. aureus ATCC 25923	3.7 µM
N[C@@H](CCCCNC(=O)OCc1ccccc1Cl)C(=O)NCCNC(=O)CCN(CCC[C@@H](C(=O)NCCc1cnc[nH]1)N(CCC(=O)NCCNC(=O)[C@@H](N)CCCCNC(=O)OCc1ccccc1Cl)CCC(=O)NCCNC(=O)[C@@H](N)CCCCNC(=O)OCc1ccccc1Cl)CCC(=O)NCCNC(=O)[C@@H](N)CCCCNC(=O)OCc1ccccc1Cl	S. aureus ATCC 25923	51 µM

Field: next compound
I am curious: what Minimal inhibitory concentration (MIC), S. aureus ATCC 25923 value has been reported for `CCCCCCCCCCCCNC(=O)[C@H](CCCN(CCC(=O)NCCNC(=O)[C@H](CCCCN)NC(=O)OCc1ccccc1Cl)CCC(=O)NCCNC(=O)[C@H](CCCCN)NC(=O)OCc1ccccc1Cl)N(CCC(=O)NCCNC(=O)[C@H](CCCCN)NC(=O)OCc1ccccc1Cl)CCC(=O)NCCNC(=O)[C@H](CCCCN)NC(=O)OCc1ccccc1Cl` ?
1.85 µM
